System: SARS-CoV-2 Main Protease (SARS-CoV-2) (UniProt P0DTD1) | Read-out: pIC50
pIC50: −log10 of the molar value.

compound | testResult
Cc1cn2ccc(C(=O)Nc3nc(-c4cnn(C)c4)cs3)cc2n1 | < 4.00
NCc1cn(CC(=O)N(Cc2ccsc2)c2ccc(-c3ccccc3)cc2)nn1 | < 4.00
O=C(NCCc1cccc(F)c1)C(c1cccnc1)N(C(=O)c1cocn1)C1CCN(c2ccccc2F)C1 (centres undefined) | < 4.00

Lookup: What pIC50 value was documented for this compound, CC(C)(C)c1ccc(N(C(=O)c2cocn2)C(C(=O)NCCc2cccc(F)c2)c2cnc(N3CCOCC3)nc2)cc1 (centres undefined) ?
Found: < 4.00
